Test system: MOLT-4 leukemia
Assay: NCI tumour cell line growth inhibition, 48 h
GI50 values by entry

// query Param item = `CC(C)[C@@H](C(=O)O[C@@H]1/C=C/C(=O)O[C@@H](C)CCC/C=C/[C@@H]2C[C@H](O)C[C@H]21)[N+](C)(C)C` ; retrieve measured GI50.
// result > 100000 nM

// query Param item = `CC(C)(C)c1ccc(C(=O)N/N=C/c2ccc(O)cc2O)cc1` ; retrieve measured GI50.
// result 346 nM

// query Param item = `Cc1sc2nc(-c3ccccn3)c(/C=N/N=C(N)N)n2c1C` ; retrieve measured GI50.
// result 10200 nM

More entries:
// query Param item = `Cc1cc2nc3ccc(N=Nc4ccc(N(C)C)cc4)cc3n(-c3ccccc3)c-2cc1=N` ; retrieve measured GI50.
// result 14.6 nM

// query Param item = `c1ccc(Cn2cc3c(c2)-c2oncc2CC3)cc1` ; retrieve measured GI50.
// result 394 nM

====

GI50 values by entry
Tested on: RXF 393 renal
Assay: NCI tumour cell line growth inhibition, 48 h

Reference set (3 entries):
// query Param item = COC(=O)C1CC2(c3ccc(C)cc3)C(c3ccc(C)cc3)=C(c3ccc(C)cc3)C1(c1ccc(C)cc1)S2=O (stereo not given) ; retrieve measured GI50.
// result 90.2 µM

// query Param item = `CCN(CC)c1ccc(/C=C/C(=O)c2cccc(NS(C)(=O)=O)c2)cc1` ; retrieve measured GI50.
// result 58 µM

// query Param item = `C[C@@H]1CN(Cc2ccc(/C=C/c3n[nH]c4ccc5nc(-c6cn[nH]c6C(F)(F)F)c6c(c5c34)CCCC6)cc2)C[C@H](C)O1` ; retrieve measured GI50.
// result 1.85 µM

More entries:
// query Param item = COc1cc2c(cc1OCCCCCCNC(=O)c1cc3ccccc3[nH]1)N=CC1CCCN1C2=O (stereo not given) ; retrieve measured GI50.
// result 35.3 µM

// query Param item = CC12C=CC(C)(O1)C1C2c2ccccc2S1(=O)=O (stereo not given) ; retrieve measured GI50.
// result 0.637 µM

====

Test system: SF-295 CNS
Assay: NCI tumour cell line growth inhibition, 48 h
RECORDED_METRIC: TGI (µM)
Use µM as the unit, but write only the number.

Reference set (3 entries):
// query Form field - read-out: TGI; system: SF-295 CNS; submitted item: `C=C(C)CC1=C(C(=S)NCCO[Si](C)(C)C(C)(C)C)C(OCC)(OCC)C1=O`
// result 33.1

// query Form field - read-out: TGI; system: SF-295 CNS; submitted item: `N/C(=N\OC(=O)NC(Cl)=C(Cl)Cl)c1cc(C(F)(F)F)cc(C(F)(F)F)c1`
// result 34.8

// query Form field - read-out: TGI; system: SF-295 CNS; submitted item: `N=C1N=C(N)c2cc3c(cc21)SCCSCCCSCCS3`
// result 31.1

# input for lookup
// query Form field - read-out: TGI; system: SF-295 CNS; submitted item: COCC(=O)[C@]1(O)Cc2c(O)c3c(c(O)c2[C@@H](OC2CC(N)C(O)C(C)O2)C1)C(=O)c1c(OC)cccc1C3=O (some centres not stated)
// result 1.34

====

TGI values by entry
Tested on: MOLT-4 leukemia
Assay: NCI tumour cell line growth inhibition, 48 h

Reference set (3 entries):
// query Form field - read-out: TGI; system: MOLT-4 leukemia; submitted item: `Sc1nnc(-c2ccccc2Nc2ccccc2-c2nnc(S)n2-c2ccccc2)n1-c1ccccc1`
// result 78.9 µM

// query Form field - read-out: TGI; system: MOLT-4 leukemia; submitted item: `O=[N+]([O-])c1cccc2nc3ccccc3c(NCCC[N+]3([O-])CCCCC3)c12`
// result > 100 µM

// query Form field - read-out: TGI; system: MOLT-4 leukemia; submitted item: CC(O)(c1ccccc1)c1nccc2ccccc12 (stereo not given)
// result > 100 µM

More entries:
// query Form field - read-out: TGI; system: MOLT-4 leukemia; submitted item: `Cc1cc2nc3ccc(N=Nc4ccc(N(C)C)cc4)cc3n(-c3ccccc3)c-2cc1=N`
// result 1.92 µM

// query Form field - read-out: TGI; system: MOLT-4 leukemia; submitted item: CC1OC(OC2C(OC3C[C@@]4(C)C(C[C@H](O)[C@H]5[C@H](C6(C)CCC(C(C)(C)O)O6)CCC54C)[C@]4(C)CC[C@@H](O)C(C)(C)C34)OC(CO)C(O)C2O)C(O)C(O)C1O (stereo not given in full) (tested in a mixture with another compound)
// result > 100 µM

// query Form field - read-out: TGI; system: MOLT-4 leukemia; submitted item: `NNC(=O)CC(=O)Nc1ccccc1F`
// result > 100 µM

// query Form field - read-out: TGI; system: MOLT-4 leukemia; submitted item: C1OCN2c3nonc3N3COCN4c5nonc5N1C2C43 (stereo not given)
// result > 100 µM

// query Form field - read-out: TGI; system: MOLT-4 leukemia; submitted item: `Cc1c(N2C(=O)/C(=C\c3ccc(O)cc3)N=C2c2ccccc2)c(=O)n(-c2ccccc2)n1C`
// result > 100 µM

====

Tested on: MOLT-4 leukemia
Assay: NCI tumour cell line growth inhibition, 48 h
TGI values by entry

// query Param item = `C[C@]12CCC(=O)C=C1CC[C@@H]1[C@@H]2C(=O)C[C@@]2(C)[C@H]1CC[C@]2(O)C(=O)CO` ; retrieve measured TGI.
// result > 100 µM

// query Param item = `COc1ccc(S(=O)(=O)O)cc1NS(=O)(=O)c1ccc(C)cc1` ; retrieve measured TGI.
// result > 100 µM

// query Param item = `NCCCCNCCCN` ; retrieve measured TGI.
// result > 100 µM

# input for lookup
// query Param item = Cc1ccc(S(=O)(=Nc2ccccc2)C(C(C)C)C(C)(C)Cl)cc1 (centres undefined) ; retrieve measured TGI.
// result 32.3 µM

====

TGI values by entry
System: OVCAR-8 ovarian
Test: NCI tumour cell line growth inhibition, 48 h

// query Param item = `COc1cc2c(c3oc(-c4ccc5c(c4)OCO5)c(O)c(=O)c13)CCC(C)(C)O2` ; retrieve measured TGI.
// result > 100 µM

// query Param item = `O=C1c2c(c3c4ccccc4n4c3c3c2c2ccccc2n3C/C=C\C4)C(=O)N1Cc1ccccc1` ; retrieve measured TGI.
// result > 100 µM

// query Param item = `Cn1cc(-c2csc(-c3cn(CCN4CCOCC4)c4ccc(F)cc34)n2)c2cccnc21` ; retrieve measured TGI.
// result 7.88 µM

// query Param item = `COc1ccc(/C=C/c2nc(N3CCOCC3)c3cc(F)c(F)cc3n2)cc1OC` ; retrieve measured TGI.
// result > 100 µM

// query Param item = `O=C1Cc2ccccc2N1/N=C\c1ccc(O)cc1` ; retrieve measured TGI.
// result > 100 µM

====

Tested on: HCC-2998 colon
Assay: NCI tumour cell line growth inhibition, 48 h
RECORDED_METRIC: GI50

// query Param item = `COc1ccc(-c2nnc3n(C)c(=O)c4ccccc4n23)cc1O` ; retrieve measured GI50.
// result 2.98 µM

// query Param item = `COc1ccc(/C=C/c2nc(N3CCOCC3)c3cc(F)c(F)cc3n2)cc1OC` ; retrieve measured GI50.
// result 7.49 µM

More entries:
// query Param item = `COc1cc(Nc2ncc3c(n2)-c2ccc(Cl)cc2C(c2c(F)cccc2OC)=NC3)ccc1C(=O)O` ; retrieve measured GI50.
// result 19.2 µM

// query Param item = `Cc1cc(C)cc(Nc2nccc(-c3c(-c4ccc(F)cc4)ncn3C3CCNCC3)n2)c1` ; retrieve measured GI50.
// result 1.28 µM

====

TGI values by entry
System: NCI-H23 lung
Assay: NCI tumour cell line growth inhibition, 48 h
Use µM as the unit, but write only the number.

Reference set (3 entries):
// query Form field - read-out: TGI; system: NCI-H23 lung; submitted item: `CC(C)OC(=O)c1ccc(CCC2=CC(=O)C(Br)=CC2=O)cc1`
// result 26.2

// query Form field - read-out: TGI; system: NCI-H23 lung; submitted item: `CCN(CC)C(=S)SNCCc1ccc(S(N)(=O)=O)cc1`
// result 38.7

// query Form field - read-out: TGI; system: NCI-H23 lung; submitted item: C=CCC1NCCC2=C1C(S(=O)(=O)c1ccc(C)cc1)c1ccccc12 (stereo not given)
// result 36.4

More entries:
// query Form field - read-out: TGI; system: NCI-H23 lung; submitted item: Cc1ccc([N+](=O)[O-])cc1S(=O)(=O)Nc1ccc(C2=NN(c3ccc([N+](=O)[O-])cc3[N+](=O)[O-])C(c3ccccc3O)C2)cc1 (stereo not given)
// result 59.7

// query Form field - read-out: TGI; system: NCI-H23 lung; submitted item: `COc1cc(/C=C/C(=O)c2c(C)n([O-])c3cc(C)c(C)cc3[n+]2=O)cc(OC)c1OC`
// result 41.9

// query Form field - read-out: TGI; system: NCI-H23 lung; submitted item: `O=C1C=C(N2CC2)c2ccccc2C1=O`
// result 7.17
